Source: PubChem BioAssay (NCI)

Test system: HOP-92 NSCLC
Assay: NCI tumour cell line growth inhibition, 48 h; in the data active = GI50 below about 0.43 µM; inactive = the rest
Outcomes: y for active, n for inactive

| COMPOUND | CLASS NAME |
| --- | --- |
| O=C1c2cc3c(cc2[C@@H]2[C@H]1c1ccc([N+](=O)[O-])cc1C(=O)N2CCCCl)OCO3 | y |
| C/C1=C\C/C=C(\C)[C@H]2CC(CC/C(C)=C/CC1)[C@@](C)(CO)O2 | n |
| ClC1=NC(Cl)C(Cl)=N/C1=N\c1ncn[nH]1 (stereo not given) | n |
| COc1c(NC(=O)CC(C)=O)[c]([Hg][O]C(C)=O)c(OC)c(Cl)[c]1[Hg][O]C(C)=O | n |
| CC1(C)N=C(N)N=C(N)N1c1cccc(CCCCc2ccccc2)c1 | y |
| COc1cc2nc(N3CCCC3)nc(Nc3ccccc3)c2cc1OC | n |
| Nc1c(C(=O)c2cccc(C#CCN3CCOCC3)c2)cnn1-c1ccc(F)cc1 | n |
| CN1CCN(Cc2ccc(NC(=O)c3nc4ccc5[nH]ncc5c4c4c3CCC4)cc2C(F)(F)F)CC1 | n |
| Cc1ccc(N=Nc2c(N)nn(-c3ccccc3)c2N)cc1 | n |
| C[C@]12CCC3c4ccc(O)cc4CCC3C1Cc1ccc(O)cc12 (stereo not given in full) | n |
